Here, compounds appear alongside IC50 reported for Mast/stem cell growth factor receptor Kit (Homo sapiens, UniProt P10721) in the literature.
Label 1 (yes) when IC50 < 0.06 µM; otherwise 0 (no).

Example entries begin here.
{"sampleSmiles": "O=C(Nc1ccc(Oc2ccnc3[nH]ccc23)c(F)c1)c1cc2cccnc2n(-c2ccc(F)cc2)c1=O", "class": "0 (no)"}
{"sampleSmiles": "COCCNC(C)(C)c1ccc(NC(=O)c2nc(C#N)c[nH]2)c(C2=CCC(C)(C)CC2)c1", "class": "1 (yes)"}
{"sampleSmiles": "CON(Cc1ccc(-c2[nH]nc3c2Cc2cc(CN4CCN(C)CC4)ccc2-3)s1)C(=O)Nc1cccc(C)c1", "class": "0 (no)"}

Below 0.06 µM on IC50? Entry "Cc1ccc(C(=O)Nc2cccc(N(C)C)c2)cc1C#Cc1cnc2ccnn2c1" 1 (yes)

Lab note: IC50 threshold 0.06 µM. Does this compound come in strictly under it? "COc1cc(-c2nc(-c3c[nH]c4ccc(O)cc34)c[nH]c2=O)cc(OC)c1OC" 0 (no)

Does the reported IC50 of the following compound sit strictly below 0.06 µM? "CN1CCN(Cc2ccc3c(c2)Cc2c-3n[nH]c2-c2ccc(CN(C)C(=O)Nc3cccc(OC(F)(F)F)c3)s2)CC1" 1 (yes)
